- Organism: Mus musculus
- experiment_notes: Cicatrizant activity in mouse assessed as wound healing by tensile strength method
- Type: functional
The source made the active and inactive calls. The calls are words filed in the database; no cut-off is given here.
test_readout: ED50

Examples with answers:
**Query** Item under review: COc1ccc2c(=O)oc3c(OC)cc(CCN(C)C)c4c(=O)oc1c2c34 . Reported ED50?
**Result** 15 mg/kg

**Query** Item under review: CC(C)=CCC[C@](C)(O)[C@@H]1CC=C(C)CC1 . Reported ED50?
**Result** 228 mg/kg

**Query** Item under review: CC(C)=CCC/C(C)=C/CC/C(C)=C/CO . Reported ED50?
**Result** inactive

**Query** Item under review: C=CC(C)(O)CC/C=C(\C)CCC=C(C)C (stereo not given) . Reported ED50?
**Result** inactive

Continuing:
**Query** Item under review: CC1=CC[C@@H](C(C)(C)O)CC1 . Reported ED50?
**Result** 240 mg/kg
